# testedOn: T1, TNFR1 (Homo sapiens, UniProt P19438)
# T1 chain: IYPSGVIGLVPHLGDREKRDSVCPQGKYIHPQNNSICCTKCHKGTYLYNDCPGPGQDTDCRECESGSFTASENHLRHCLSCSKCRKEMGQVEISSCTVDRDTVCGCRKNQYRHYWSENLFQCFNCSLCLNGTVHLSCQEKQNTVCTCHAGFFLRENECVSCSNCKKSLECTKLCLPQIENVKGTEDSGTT
# procedureDetails: yeast display SC50
# apparent Kd (screen) values compiled below
Express the result in pM but write the number alone.

Just so you know, measured apparent Kd (screen) for G54F (designed binder) MTLQELLREEALRRAEAEAFRYALELLAEKFPEQKEYLLDLAEEIESQIRSLSFVDVEDVRKFLDKEWAWVKELLAEHPAELAEVEAARAARLAELRAEVEAKVAA came out at 12500

Just so you know, measured apparent Kd (screen) for R97D (designed binder) MTLQELLREEALRRAEAEAFRYALELLAEKFPEQKEYLLDLAEEIESQIRSLSGVDVEDVRKFLDKEWAWVKELLAEHPAELAEVEAARAARLAELDAEVEAKVAA came out at 593

Just so you know, measured apparent Kd (screen) for E43G (designed binder) MTLQELLREEALRRAEAEAFRYALELLAEKFPEQKEYLLDLAGEIESQIRSLSGVDVEDVRKFLDKEWAWVKELLAEHPAELAEVEAARAARLAELRAEVEAKVAA came out at 790

Just so you know, measured apparent Kd (screen) for L82T (designed binder) MTLQELLREEALRRAEAEAFRYALELLAEKFPEQKEYLLDLAEEIESQIRSLSGVDVEDVRKFLDKEWAWVKELLAEHPAETAEVEAARAARLAELRAEVEAKVAA came out at 653

# credit: paper PMC12416549
